Tested on: UMC-11
Assay: relative viability (nuclei count vs DMSO), 5 days (fraction); higher = more cells survive
Conditions: first compound 5 µM
Hi! Could you tag entries with relative viability below 0.3 as 1, and those at or above as -1? Much appreciated.

Examples with answers:
>>> qualitative_label("O=C(O)CCCCC(CCSCc1ccccc1)SCc1ccccc1 (stereo unspecified) [CPI-613] + Nc1nc2[nH]cc(CCc3ccc(C(=O)N[C@@H](CCC(=O)O)C(=O)O)cc3)c2c(=O)[nH]1 [Pemetrexed] (partner 0.2 µM)")
-1
>>> qualitative_label("O=C(O)CCCCC(CCSCc1ccccc1)SCc1ccccc1 (stereo unspecified) [CPI-613] + CC(C)C[C@H](NC(=O)[C@H](Cc1ccccc1)NC(=O)c1cnccn1)B(O)O [Bortezomib] (partner 0.002 µM)")
-1
>>> qualitative_label("O=C(O)CCCCC(CCSCc1ccccc1)SCc1ccccc1 (stereo unspecified) [CPI-613] + O=C(c1cc(Cc2n[nH]c(=O)c3ccccc23)ccc1F)N1CCN(C(=O)C2CC2)CC1 [Olaparib] (partner 8 µM)")
-1
>>> qualitative_label("O=C(O)CCCCC(CCSCc1ccccc1)SCc1ccccc1 (stereo unspecified) [CPI-613] + Cc1cc(Nc2cc(N3CCN(C)CC3)nc(Sc3ccc(NC(=O)C4CC4)cc3)n2)n[nH]1 [Tozasertib] (partner 0.1 µM)")
1
>>> qualitative_label("O=C(O)CCCCC(CCSCc1ccccc1)SCc1ccccc1 (stereo unspecified) [CPI-613] + CCNC(=O)c1noc(-c2cc(C(C)C)c(O)cc2O)c1-c1ccc(CN2CCOCC2)cc1 [Luminespib] (partner 0.01 µM)")
-1

Continue with the compound presented below.
Exercise: relative viability strictly < 0.3 for this compound? O=C(O)CCCCC(CCSCc1ccccc1)SCc1ccccc1 (stereo unspecified) [CPI-613] + CC(=O)c1c(C)c2cnc(Nc3ccc(N4CCNCC4)cn3)nc2n(C2CCCC2)c1=O [Palbociclib] (partner 0.5 µM)
Key: -1
